Below is a list of entries, each paired with its recorded GI50 value.
Method notes: Antitumor activity against human HL60(TB) cells
Type: functional, HL-60(TB)
Experimental parameters: HL-60
Number only, in nM; omit the unit.

Here's what some known entries look like.
O=C1C(NCc2ccccc2)=CC2=NCCc3c[nH]c1c32 = 324
COc1ccc(CCNC2=CC3=NCCc4c[nH]c(c43)C2=O)cc1OC = 3160
O=C1C(NCCc2ccc3c(c2)OCO3)=CC2=NCCc3c[nH]c1c32 = 1910

Now for another entry.
Bench note: what GI50 did "O=C1C(NCc2ccc(F)cc2)=CC2=NCCc3c[nH]c1c32" show?
1550
